The compounds listed here are annotated with their melting point.

// worked examples, melting point included
compound	melting point
COc1cnc2c(c1)C(=O)c1c-2n(CCCN2CCN(C)CC2)c(=O)c2cc([N+](=O)[O-])ccc12	211 to 213 °C
COc1cnc2c(c1)C(=O)c1c-2n(CCCNCCN2CCOCC2)c(=O)c2cc([N+](=O)[O-])ccc12	214 to 216 °C
COc1cnc2c(c1)C(=O)c1c-2n(CCCN2CCNCC2)c(=O)c2cc([N+](=O)[O-])ccc12	134 to 135 °C

Using the record for CNCCCn1c2c(c3ccc(Cl)cc3c1=O)C(=O)c1cc(OC)cnc1-2 [Compound 16g] , state its measured melting point.
274 to 275 °C

Using the record for COc1cnc2c(c1)C(=O)c1c-2n(CCCN2CCCC2)c(=O)c2cc([N+](=O)[O-])ccc12 , state its measured melting point.
248 to 250 °C

Using the record for CCNCCCn1c2c(c3ccc([N+](=O)[O-])cc3c1=O)C(=O)c1cc(OC)cnc1-2 , state its measured melting point.
266 to 268 °C

Using the record for COc1cnc2c(c1)C(=O)c1c-2n(CCCNC(C)C)c(=O)c2cc(F)ccc12 [Compound 17f] , state its measured melting point.
285 to 292 °C

Using the record for COc1cnc2c(c1)C(=O)c1c-2n(CCCN2CCCC2)c(=O)c2cc(F)ccc12 [Compound 17i] , state its measured melting point.
157 to 162 °C

Using the record for COc1cnc2c(c1)C(=O)c1c-2n(CCCNC2=NCCS2)c(=O)c2cc(Cl)ccc12 [Compound 16c] , state its measured melting point.
295 to 298 °C

----------
Target: Tdp1 (Homo sapiens, UniProt Q9NUW8)
Sequence (Q9NUW8 whole entry): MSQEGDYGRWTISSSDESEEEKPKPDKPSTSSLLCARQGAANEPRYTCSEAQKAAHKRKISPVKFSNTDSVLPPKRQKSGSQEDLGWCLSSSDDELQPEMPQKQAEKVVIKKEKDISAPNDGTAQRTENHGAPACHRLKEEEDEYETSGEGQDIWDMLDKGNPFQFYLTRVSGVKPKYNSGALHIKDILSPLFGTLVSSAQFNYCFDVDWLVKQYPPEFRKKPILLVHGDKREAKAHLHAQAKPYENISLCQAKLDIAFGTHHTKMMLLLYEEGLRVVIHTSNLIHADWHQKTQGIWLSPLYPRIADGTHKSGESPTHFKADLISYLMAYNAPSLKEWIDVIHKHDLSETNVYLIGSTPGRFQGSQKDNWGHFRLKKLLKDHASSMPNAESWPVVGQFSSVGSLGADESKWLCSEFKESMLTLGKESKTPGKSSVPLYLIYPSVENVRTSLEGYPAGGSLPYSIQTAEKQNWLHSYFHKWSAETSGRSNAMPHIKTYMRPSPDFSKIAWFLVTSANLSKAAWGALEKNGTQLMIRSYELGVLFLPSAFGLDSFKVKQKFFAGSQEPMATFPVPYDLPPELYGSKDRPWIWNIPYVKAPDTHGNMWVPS
Experiment: Recombinant Tdp1 assay
Assay type: biochemical
Conditions: semiquantitative scale, in duplicate; Table 1; read-out: Enzyme Inhibitory Activity Tdp1
pIC50: −log10 of the molar value.
The compounds listed here are annotated with their pIC50.

// worked examples, pIC50 included
compound	assayed.system	reported.result
COc1cc2c3c(n(CCCNCCO)c(=O)c2cc1OC)-c1cc2c(cc1C3=O)OCO2 [Compound 19, reference compound]	Tdp1 (Homo sapiens, UniProt Q9NUW8)	3.95 to 4.92
CCNCCCn1c2c(c3ccc([N+](=O)[O-])cc3c1=O)C(=O)c1cc(OC)cnc1-2	Tdp1 (Homo sapiens, UniProt Q9NUW8)	4.92 to 6.00

Using the record for COc1cnc2c(c1)C(=O)c1c-2n(CCCN2CCNCC2)c(=O)c2cc([N+](=O)[O-])ccc12 , state its measured pIC50.
4.43 to 4.92

Using the record for COc1cnc2c(c1)C(=O)c1c-2n(CCCN2CCC(N)CC2)c(=O)c2cc([N+](=O)[O-])ccc12 , state its measured pIC50.
4.92 to 6.00

Using the record for COc1cnc2c(c1)C(=O)c1c-2n(CCCNC(C)C)c(=O)c2cc([N+](=O)[O-])ccc12 , state its measured pIC50.
4.43 to 4.92

Using the record for COc1cnc2c(c1)C(=O)c1c-2n(CCCN2CCN(C)CC2)c(=O)c2cc([N+](=O)[O-])ccc12 , state its measured pIC50.
4.43 to 4.92

Using the record for COc1cnc2c(c1)C(=O)c1c-2n(CCCNC2=NCCS2)c(=O)c2cc([N+](=O)[O-])ccc12 , state its measured pIC50.
4.92 to 6.00

Using the record for COc1cnc2c(c1)C(=O)c1c-2n(CCCBr)c(=O)c2cc([N+](=O)[O-])ccc12 , state its measured pIC50.
4.43 to 4.92

Using the record for COc1cnc2c(c1)C(=O)c1c-2n(CCCNCCN2CCOCC2)c(=O)c2cc([N+](=O)[O-])ccc12 , state its measured pIC50.
4.43 to 4.92

Using the record for CNCCCn1c2c(c3ccc([N+](=O)[O-])cc3c1=O)C(=O)c1cc(OC)cnc1-2 , state its measured pIC50.
4.92 to 6.00

Using the record for COc1cnc2c(c1)C(=O)c1c-2n(CCCN2CCN(CCO)CC2)c(=O)c2cc([N+](=O)[O-])ccc12 , state its measured pIC50.
< 3.95

Using the record for COc1cnc2c(c1)C(=O)c1c-2n(CCCN2CCCC2)c(=O)c2cc([N+](=O)[O-])ccc12 , state its measured pIC50.
4.92 to 6.00

----------
Target: Tdp1 (Homo sapiens, UniProt Q9NUW8)
Test: Recombinant Tdp1 assay
Type: biochemical
pIC50: −log10 of the molar value.
metric: pIC50

Using the record for CC[C@@]1(O)C(=O)OCc2c1cc1n(c2=O)Cc2cc3ccccc3nc2-1 [Compound 18, camptothecin, reference compound] , state its measured pIC50.
< 3.95

----------
The compounds listed here are annotated with their IC50.
Biological target: Tdp1 (Homo sapiens, UniProt Q9NUW8)
Assay: Recombinant Tdp1 assay
Assay type: biochemical
Conditions: read-out: Enzyme Inhibitory Activity Tdp1 (IC50)
Answer in µM, number only, no unit symbol.

compound	endpoint.unit	IC50
COc1cnc2c(c1)C(=O)c1c-2n(CCCN2CCNCC2)c(=O)c2cc(Cl)ccc12 [Compound 16e]	µM	20.2

We now examine a further compound.
Using the record for COc1cnc2c(c1)C(=O)c1c-2n(CCCN2CCCC2)c(=O)c2cc(Cl)ccc12 [Compound 16i] , state its measured IC50.
27.5

----------
Values of log10 of GI50 reported for HCT-116 appear below.
Please note: log10 values; quantity GI50; unit µM.

// worked examples, log10 of GI50 included
molecule	log10 of GI50
COc1cnc2c(c1)C(=O)c1c-2n(CCCNC(C)C)c(=O)c2cc(F)ccc12 [Compound 17f]	-1.03
COc1cnc2c(c1)C(=O)c1c-2n(CCCN2CCNCC2)c(=O)c2cc(Cl)ccc12 [Compound 16e]	-0.53
COc1cnc2c(c1)C(=O)c1c-2n(CCCN2CCC(O)CC2)c(=O)c2cc(F)ccc12 [Compound 17d]	-1.05

Report the value of log10 of GI50 obtained on HCT-116 for COc1cnc2c(c1)C(=O)c1c-2n(CCCNC2=NCCS2)c(=O)c2cc(F)ccc12 [Compound 17c] .
-1.09

Report the value of log10 of GI50 obtained on HCT-116 for COc1cnc2c(c1)C(=O)c1c-2n(CCCN2CCCC2)c(=O)c2cc(F)ccc12 [Compound 17i] .
-0.82

Report the value of log10 of GI50 obtained on HCT-116 for CNCCCn1c2c(c3ccc(F)cc3c1=O)C(=O)c1cc(OC)cnc1-2 [Compound 17g] .
-0.84

Report the value of log10 of GI50 obtained on HCT-116 for COc1cnc2c(c1)C(=O)c1c-2n(CCCn2ccnc2)c(=O)c2cc(Cl)ccc12 [Compound 16b] .
-1.85

Report the value of log10 of GI50 obtained on HCT-116 for CNCCCn1c2c(c3ccc(Cl)cc3c1=O)C(=O)c1cc(OC)cnc1-2 [Compound 16g] .
-0.26

----------
Biological target: recombinant human TDP2 (Homo sapiens)
Sequence (O95551 whole entry): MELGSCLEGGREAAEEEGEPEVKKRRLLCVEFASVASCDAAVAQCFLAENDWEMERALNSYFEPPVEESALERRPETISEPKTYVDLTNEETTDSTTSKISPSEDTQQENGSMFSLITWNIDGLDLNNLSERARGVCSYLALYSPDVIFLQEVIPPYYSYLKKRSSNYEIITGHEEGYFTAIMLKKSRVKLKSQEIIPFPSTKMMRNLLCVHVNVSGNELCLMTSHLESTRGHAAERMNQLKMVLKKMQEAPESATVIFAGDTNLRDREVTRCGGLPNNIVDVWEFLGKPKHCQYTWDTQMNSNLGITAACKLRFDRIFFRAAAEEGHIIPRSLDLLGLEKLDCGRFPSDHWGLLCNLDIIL
Experiment: Recombinant Tdp2 assay
Format: biochemical
Conditions: read-out: Enzyme Inhibitory Activity Tdp2 (IC50)
metric: pIC50
Note: pIC50 values are expressed as the negative base-10 logarithm of concentration in M.

Using the record for COc1cnc2c(c1)C(=O)c1c-2n(CCCNC2=NCCS2)c(=O)c2cc(F)ccc12 [Compound 17c] , state its measured pIC50.
4.21

Using the record for CCNCCCn1c2c(c3ccc(F)cc3c1=O)C(=O)c1cc(OC)cnc1-2 [Compound 17h] , state its measured pIC50.
3.98

Using the record for COc1cnc2c(c1)C(=O)c1c-2n(CCCNC2=NCCS2)c(=O)c2cc(Cl)ccc12 [Compound 16c] , state its measured pIC50.
4.48

Using the record for COc1cnc2c(c1)C(=O)c1c-2n(CCCN2CCNCC2)c(=O)c2cc(F)ccc12 [Compound 17e] , state its measured pIC50.
3.97

----------
Molecular target: Top1 (Homo sapiens, UniProt P11387)
Sequence (P11387 1-765): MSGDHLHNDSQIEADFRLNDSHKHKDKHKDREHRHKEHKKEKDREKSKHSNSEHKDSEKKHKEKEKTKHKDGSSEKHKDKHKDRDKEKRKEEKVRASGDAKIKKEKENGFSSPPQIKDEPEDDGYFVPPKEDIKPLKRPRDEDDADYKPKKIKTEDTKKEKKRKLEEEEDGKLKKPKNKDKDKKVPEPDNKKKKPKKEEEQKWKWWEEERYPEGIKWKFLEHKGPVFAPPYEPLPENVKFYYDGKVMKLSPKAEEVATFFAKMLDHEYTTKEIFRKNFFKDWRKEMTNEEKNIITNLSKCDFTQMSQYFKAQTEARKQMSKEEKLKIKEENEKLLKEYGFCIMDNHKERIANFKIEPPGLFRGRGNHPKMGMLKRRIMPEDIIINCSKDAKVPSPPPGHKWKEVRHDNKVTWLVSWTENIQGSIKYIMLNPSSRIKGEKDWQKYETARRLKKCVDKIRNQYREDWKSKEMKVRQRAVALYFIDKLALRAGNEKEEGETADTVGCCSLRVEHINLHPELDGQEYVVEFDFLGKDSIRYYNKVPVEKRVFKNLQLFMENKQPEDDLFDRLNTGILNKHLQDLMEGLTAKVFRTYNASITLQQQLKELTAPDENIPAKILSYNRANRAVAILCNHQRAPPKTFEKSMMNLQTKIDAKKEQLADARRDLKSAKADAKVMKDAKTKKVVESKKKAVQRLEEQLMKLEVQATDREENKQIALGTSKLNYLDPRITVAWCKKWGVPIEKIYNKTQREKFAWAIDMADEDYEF
Assay: Top1-mediated DNA cleavage assay
Format: biochemical
Conditions: DNA cleavage relative to 1 μM MJ-III-65 (19) and 1 μM camptothecin (18); Table 1
metric: Enzyme Inhibitory Activity Top1

// worked examples, Enzyme Inhibitory Activity Top1 included
molecule	Enzyme Inhibitory Activity Top1
CNCCCn1c2c(c3ccc([N+](=O)[O-])cc3c1=O)C(=O)c1cc(OC)cnc1-2 [Compound 11]	+++
CC[C@@]1(O)C(=O)OCc2c1cc1n(c2=O)Cc2cc3ccccc3nc2-1 [Compound 18, camptothecin, reference compound]	++++
COc1cnc2c(c1)C(=O)c1c-2n(CCCN2CCC(N)CC2)c(=O)c2cc([N+](=O)[O-])ccc12 [Compound 17]	++
COc1cnc2c(c1)C(=O)c1c-2n(CCCN2CCN(CCO)CC2)c(=O)c2cc([N+](=O)[O-])ccc12 [Compound 16]	+++
COc1cnc2c(c1)C(=O)c1c-2n(CCCNCCN2CCOCC2)c(=O)c2cc([N+](=O)[O-])ccc12 [Compound 13]	+++
COc1cnc2c(c1)C(=O)c1c-2n(CCCN2CCCC2)c(=O)c2cc([N+](=O)[O-])ccc12 [Compound 8]	++

Report the value of Enzyme Inhibitory Activity Top1 obtained on Top1 (Homo sapiens, UniProt P11387) for COc1cnc2c(c1)C(=O)c1c-2n(CCCNC2=NCCS2)c(=O)c2cc([N+](=O)[O-])ccc12 [Compound 12] .
++++
